# Tgt: CDK6/cyclin D1 (Homo sapiens)
# Sequence (Q00534 whole entry, species assumed): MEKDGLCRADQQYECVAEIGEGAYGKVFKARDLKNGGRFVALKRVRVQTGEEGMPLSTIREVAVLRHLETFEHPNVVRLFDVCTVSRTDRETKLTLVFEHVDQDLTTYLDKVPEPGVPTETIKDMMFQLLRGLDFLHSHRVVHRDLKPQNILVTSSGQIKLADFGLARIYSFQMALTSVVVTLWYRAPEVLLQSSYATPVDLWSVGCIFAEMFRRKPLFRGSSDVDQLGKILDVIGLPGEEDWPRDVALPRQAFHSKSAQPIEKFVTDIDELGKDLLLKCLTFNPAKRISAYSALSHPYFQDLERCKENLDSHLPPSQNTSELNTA
# Sequence (P24385 whole entry partner, species assumed): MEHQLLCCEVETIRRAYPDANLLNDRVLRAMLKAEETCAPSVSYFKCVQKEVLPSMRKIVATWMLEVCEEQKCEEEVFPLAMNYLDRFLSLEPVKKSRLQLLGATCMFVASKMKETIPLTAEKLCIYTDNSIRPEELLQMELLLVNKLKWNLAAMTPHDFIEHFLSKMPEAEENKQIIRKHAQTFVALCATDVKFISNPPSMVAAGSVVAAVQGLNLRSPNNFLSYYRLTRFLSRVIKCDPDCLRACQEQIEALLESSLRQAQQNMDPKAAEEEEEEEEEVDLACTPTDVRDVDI
# Experiment Description: Biochemical kinase inhibition test, CDK6/cyclin D1 (similar method)
# Recorded Conditions: CDK6/cyclin D1 versus CDK4/cyclin D1
Measurement Kind: selectivity for CDK6/cyclin D1 relative to CDK4/cyclin D1 (enzyme inhibitory activity)

Solved cases (4 shown):
| Smiles Notation | Test Result |
| --- | --- |
| CCn1ncc2ccc3cnc(Nc4ccc(N5CCNCC5)c(F)n4)nc3c21.Cl | about 2 times |
| COc1cc(OC)cc(-c2cc3cnc(Nc4ccc(N5CCOCC5)cn4)nc3c3c2cnn3C(C)C)c1 | about 3 times |
| CCn1ncc2ccc3cnc(Nc4ccc(N5CCOCC5)cn4)nc3c21 | about 3 times |
| CCN1CCN(c2cnc(Nc3ncc4ccc5cnn(CC)c5c4n3)cc2C)CC1 | about 2 times |

# input for lookup
## Task Name the reported selectivity for CDK6/cyclin D1 relative to CDK4/cyclin D1 (enzyme inhibitory activity) value associated with the compound CC(C)n1ncc2c(Br)cc3cnc(Nc4cc(F)c(N5CCNCC5)cn4)nc3c21.Cl
## Result about 2 times
